- MEASURED_ON: Human cathepsin L (Homo sapiens, UniProt P07711)
- Construct: purchased Calbiochem Corp
- Sequence (P07711 114-333): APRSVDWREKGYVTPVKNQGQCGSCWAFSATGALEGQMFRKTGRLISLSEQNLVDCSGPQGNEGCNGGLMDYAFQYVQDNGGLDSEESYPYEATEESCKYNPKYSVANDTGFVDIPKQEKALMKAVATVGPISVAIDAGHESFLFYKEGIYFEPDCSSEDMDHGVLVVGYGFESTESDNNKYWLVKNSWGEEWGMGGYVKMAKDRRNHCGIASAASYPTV
- RUN_DESCRIPTION: Measurement of cathepsin L inhibitory activity
- Assay type: biochemical
- MEASUREMENT_CONTEXT: selectivity ratio L/K
*1 amine or outer side, *2 acyl side, *3 side chain or, on linkers, in order; H or OH if unused. Where a SMILES comes first, the peptide text is derived from it. [ ]: non-standard residue; d: D form. The star is where a group is joined. Ac6c = NC1(C(=O)O)CCCCC1; Morpholide = C1CN(*)CCO1; Nle = CCCC[C@H](N)C(=O)O; Cbz = O=C(OCc1ccccc1)*; CO = O=C([*:1])[*:2]
READOUT_TYPE: L/K (ratio of IC50 cathepsin L to cathepsin K)

Examples from the recorded data:
CCCC[C@@H](C=O)NC(=O)[C@H](CC(C)C)NC(=O)OCc1ccccc1 [Reference Example 149]; 15
CC(C)C[C@H](NC(=O)c1ccco1)C(=O)N[C@H](C=O)C(C)C [Reference Example 151]; 35
CC(C)[C@@H](C=O)NC(=O)C1(NC(=O)c2ccco2)CCCCC1 [Reference Example 146]; 370

1: CC(C)[C@@H](C=O)NC(=O)C1(NC(=O)OCc2ccccc2)CCCCC1 [Reference Example 144] (Cbz-[Ac6c]-Val-aldehyde)
2: CCCC[C@@H](C=O)NC(=O)C1(NC(=O)OCc2ccccc2)CCCCC1 [Reference Example 145] (Cbz-[Ac6c]-[Nle]-aldehyde)
3: CC(C)C[C@H](NC(=O)OCc1ccccc1)C(=O)N[C@H](C=O)C(C)C [Reference Example 148] (Cbz-Leu-Val-aldehyde)
4: CCCC[C@@H](C=O)NC(=O)[C@H](CC(C)C)NC(=O)N1CCOCC1 [Reference Example 150]
5: CCCC[C@@H](C=O)NC(=O)C1(NC(=O)N2CCOCC2)CCCCC1 [Reference Example 147] ({Morpholide-CO}-[Ac6c]-[Nle]-aldehyde)
Request: Falling order of L/K (ratio of IC50 cathepsin L to cathepsin K), please. Enter labels, ranked according to the request.
Result: 1, 3, 2, 5, 4
